B1: library; a variant is named by its letters at N, in order (parent)
chain: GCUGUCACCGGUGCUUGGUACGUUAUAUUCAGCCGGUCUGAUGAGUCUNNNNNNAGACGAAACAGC

# Variants of: B1
# PROCEDURE SUMMARY: normalized RNA/DNA level without ligand (relative to sTRSVctl = 100) (log10 (% of sTRSVctl)); HEK293T overexpressing SLC46A1; higher = less ribozyme self-cleavage, higher mRNA level
# RUN PARAMETERS: without (6R,S)-folinic acid; ligand present: no
The reader will find reported normalized RNA/DNA level without ligand (log10) values listed item by item below.
Field format: numeric only.

AUUUAC :: 2
GGUAUC :: 2.01

Just so you know, measured normalized RNA/DNA level without ligand (log10) for CAGGGU came out at 1.97
